experimental_system: human MC4R receptor (human, UniProt P32245 1-332)
Sequence (P32245 whole entry): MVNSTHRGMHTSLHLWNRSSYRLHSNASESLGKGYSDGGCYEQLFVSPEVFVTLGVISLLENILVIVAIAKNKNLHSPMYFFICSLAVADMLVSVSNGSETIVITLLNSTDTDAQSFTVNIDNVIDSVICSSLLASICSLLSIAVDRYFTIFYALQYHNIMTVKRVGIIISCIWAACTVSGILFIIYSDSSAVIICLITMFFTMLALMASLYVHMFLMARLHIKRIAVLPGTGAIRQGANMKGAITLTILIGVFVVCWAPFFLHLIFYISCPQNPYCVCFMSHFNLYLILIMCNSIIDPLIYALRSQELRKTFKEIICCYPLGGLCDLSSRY
method_summary: cell-based or functional assay
Positions of bridges follow the written chain, without caps; N, C: chain ends. Non-standard residues stand in square brackets, D forms with d. dPhe(4-Br) = N[C@H](Cc1ccc(Br)cc1)C(=O)O; d(αMeF) = C[C@@](N)(Cc1ccccc1)C(=O)O; NMeR = CN[C@@H](CCCNC(=N)N)C(=O)O
MC4R selectivity vs MC3R for assorted binders
value_kind: MC4R selectivity vs MC3R

• Ac-RC[dA]R[d(αMeF)]R[dW]C-NH2 (disulfide 2-8; SMILES CC(=O)N[C@@H](CCCNC(=N)N)C(=O)N[C@H]1CSSC[C@@H](C(N)=O)NC(=O)[C@@H](Cc2c[nH]c3ccccc23)NC(=O)[C@H](CCCNC(=N)N)NC(=O)[C@@](C)(Cc2ccccc2)NC(=O)[C@H](CCCNC(=N)N)NC(=O)[C@@H](C)NC1=O) [CTX-1240] = 0.41
• Ac-RC[dA]R[dPhe(4-Br)]R[dW]CKP-NH2 (disulfide 2-8; SMILES CC(=O)N[C@@H](CCCNC(=N)N)C(=O)N[C@H]1CSSC[C@@H](C(=O)N[C@@H](CCCCN)C(=O)N2CCC[C@H]2C(N)=O)NC(=O)[C@@H](Cc2c[nH]c3ccccc23)NC(=O)[C@H](CCCNC(=N)N)NC(=O)[C@@H](Cc2ccc(Br)cc2)NC(=O)[C@H](CCCNC(=N)N)NC(=O)[C@@H](C)NC1=O) [CTX-1217] = 2.73
• Ac-RC[dA][NMeR][dPhe(4-Br)]R[dW]C-NH2 (disulfide 2-8; SMILES CC(=O)N[C@@H](CCCNC(=N)N)C(=O)N[C@H]1CSSC[C@@H](C(N)=O)NC(=O)[C@@H](Cc2c[nH]c3ccccc23)NC(=O)[C@H](CCCNC(=N)N)NC(=O)[C@@H](Cc2ccc(Br)cc2)NC(=O)[C@H](CCCNC(=N)N)N(C)C(=O)[C@@H](C)NC1=O) [CTX-1248] = 1.36

Every entry's value here was drawn from patent US20240391954A1.
